target: CDK4/cyclin D1 (Homo sapiens (Human)); assay: CDK4/cyclin D1 enzymatic activity assay (TR-FRET, phosphorylation of pRb at Ser780); format: biochemical; details: 0.3 nM CDK4/cyclin D1, 150 nM biotin-pRb (773-924), 3 μM ATP, 60 min at 22° C.; read-out: Biochemical CDK4 enzyme IC50
Sequence (P11802 whole entry): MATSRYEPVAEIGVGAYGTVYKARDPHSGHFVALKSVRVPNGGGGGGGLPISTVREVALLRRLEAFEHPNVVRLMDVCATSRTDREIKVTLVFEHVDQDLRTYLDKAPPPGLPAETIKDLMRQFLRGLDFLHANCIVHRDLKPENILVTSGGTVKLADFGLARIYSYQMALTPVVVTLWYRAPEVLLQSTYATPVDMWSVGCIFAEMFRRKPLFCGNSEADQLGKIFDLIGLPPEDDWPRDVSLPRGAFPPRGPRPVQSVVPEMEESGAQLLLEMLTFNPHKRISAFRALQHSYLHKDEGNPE
Sequence (P24385 whole entry partner): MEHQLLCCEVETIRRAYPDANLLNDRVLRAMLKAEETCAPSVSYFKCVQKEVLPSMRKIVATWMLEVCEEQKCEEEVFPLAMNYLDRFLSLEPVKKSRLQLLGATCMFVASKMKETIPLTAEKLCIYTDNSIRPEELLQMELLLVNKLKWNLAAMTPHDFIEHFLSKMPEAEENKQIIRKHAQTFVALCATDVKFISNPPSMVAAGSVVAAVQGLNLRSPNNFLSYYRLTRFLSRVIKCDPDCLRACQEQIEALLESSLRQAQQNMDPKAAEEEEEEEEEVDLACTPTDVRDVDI
Property label: pIC50
// pIC50 here means minus log10 of the molar concentration (mol/L)

Solved entries:
Give pIC50 for the following compound: `CN(C)C(=O)c1cc2cnc(Nc3ccc(C(=O)N4CC5CCC(C4)N5C(=O)CN)cn3)nc2n1C1CCCC1` 7.72

Give pIC50 for the following compound: `CN(C)C(=O)c1cc2cnc(Nc3ccc(C(=O)N4CC5CNCC(C4)O5)cn3)nc2n1C1CCCC1` 7.52

Give pIC50 for the following compound: `CN(C)C(=O)c1cc2cnc(Nc3ccc(N4CCN5CCC[C@H]5C4=O)cn3)nc2n1C1CCCC1` 6.21

Please look at the following compound next.
Give pIC50 for the following compound: `CN(C)C(=O)c1cc2cnc(Nc3ccc(C(=O)N4CC[C@@H]5CC[C@H](C4)N5)cn3)nc2n1C1CCCC1` 7.89

###

target: CDK1/cyclin B (Homo sapiens (Human)); assay: CDK1/cyclin B enzymatic activity assay (IMAP-FP); format: biochemical; conditions: […] CDK1/cyclin B, 100 nM Tamra Histone-H1 peptide, 20 μM ATP, 120 min at room temperature; read-out: Biochemical CDK1 enzyme IC50
Sequence (P06493 whole entry, species assumed): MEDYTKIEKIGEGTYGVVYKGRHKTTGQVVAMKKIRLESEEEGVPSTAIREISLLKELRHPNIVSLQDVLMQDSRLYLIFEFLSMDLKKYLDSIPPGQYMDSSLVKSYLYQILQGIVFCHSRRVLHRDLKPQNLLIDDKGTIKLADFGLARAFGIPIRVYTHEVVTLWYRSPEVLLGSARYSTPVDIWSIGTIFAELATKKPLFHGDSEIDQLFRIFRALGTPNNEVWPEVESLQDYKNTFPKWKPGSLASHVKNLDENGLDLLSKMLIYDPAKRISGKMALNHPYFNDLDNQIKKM
Sequence (P14635 whole entry partner, species assumed): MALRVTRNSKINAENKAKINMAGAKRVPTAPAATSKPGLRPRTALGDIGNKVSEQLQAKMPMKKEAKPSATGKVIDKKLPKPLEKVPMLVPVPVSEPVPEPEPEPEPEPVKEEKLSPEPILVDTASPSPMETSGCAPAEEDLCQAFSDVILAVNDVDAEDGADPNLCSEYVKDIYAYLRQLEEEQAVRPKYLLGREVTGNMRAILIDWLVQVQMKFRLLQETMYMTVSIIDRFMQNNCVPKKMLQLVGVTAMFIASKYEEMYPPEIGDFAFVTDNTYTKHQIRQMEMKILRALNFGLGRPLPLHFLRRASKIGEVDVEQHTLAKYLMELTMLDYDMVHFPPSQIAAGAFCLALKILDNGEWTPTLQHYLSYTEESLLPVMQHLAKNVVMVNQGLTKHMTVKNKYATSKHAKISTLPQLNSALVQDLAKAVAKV
pIC50: −log10 of the molar value.
Some compounds, each annotated with its measured pIC50.

Solved entries:
Give pIC50 for the following compound: CN(C)C(=O)c1cc2cnc(Nc3ccc(N4C[C@]5(CCCNCC5)OC4=O)cn3)nc2n1C1CCCC1 [Example 106] < 4.82

Give pIC50 for the following compound: CN(C)C(=O)c1cc2cnc(Nc3ccc(C(=O)N4C[C@H]5CNC[C@@H](C4)C5O)cn3)nc2n1C1CCCC1 (stereo partly shown) [Example 1] < 4.82

Give pIC50 for the following compound: CC(C)N1[C@@H]2CC[C@H]1CN(c1ccc(Nc3ncc4cc(C(=O)N(C)C)n(C5CCCC5)c4n3)nc1)C(=O)C2 [Example 142] < 4.82

Give pIC50 for the following compound: CN(C)C(=O)c1cc2cnc(Nc3ccc(C(=O)N4C[C@@H]5C[C@]5(N)C4)cn3)nc2n1C1CCCC1 (stereo in doubt) [Example 15] < 4.82

Give pIC50 for the following compound: CN(C)C(=O)c1cc2cnc(Nc3ccc(N4CC5(CC4=O)CC4CCC(C5)N4)cn3)nc2n1C1CCCOC1 (stereo not shown) [Example 120] < 4.82

Give pIC50 for the following compound: CN(C)C(=O)c1cc2cnc(Nc3ccc(N4CC5CCC(C4)N5)cn3)nc2n1C1CCCC1 [Example 112] < 4.82

Give pIC50 for the following compound: CN(C)C(=O)c1cc2cnc(Nc3ccc(N4CCN5CCCCC5C4=O)cn3)nc2n1C1CCCC1 (stereo not shown) [Example 99] < 4.82

Give pIC50 for the following compound: CN(C)C(=O)c1cc2cnc(Nc3ccc(C(=O)N4CC5CNCC5C4)cn3)nc2n1C1CCCC1 (stereo not shown) [Example 32] < 4.82

Give pIC50 for the following compound: CN(C)C(=O)c1cc2cnc(Nc3ccc(N4CC5CCC(CC4=O)N5)cn3)nc2n1C1CCC1 (stereo not shown) [Example 134] < 4.82

Give pIC50 for the following compound: CN(C)C(=O)c1cc2cnc(Nc3ccc(C(=O)N4C[C@@H]5CN[C@@H](C5)C4)cn3)nc2n1C1CCCC1 [Example 10] 5.38

Further cases:
Give pIC50 for the following compound: CN(C)C(=O)c1cc2cnc(Nc3ccc(C(=O)N4CC5CCC(C4)N5)cn3)nc2n1C(C)(C)C [Example 58] < 4.82

Give pIC50 for the following compound: CN(C)C(=O)c1cc2cnc(Nc3ccc(N4C[C@H]5CC[C@@H](CC4=O)N5)cn3)nc2n1C1CCCC1 [Example 123] 4.53

Give pIC50 for the following compound: CN(C)C(=O)c1cc2cnc(Nc3ccc(C(=O)N4CC5CCC4C5O)cn3)nc2n1C1CCCCCC1 (stereo not shown) [Example 7] 4.75

Give pIC50 for the following compound: CN(C)C(=O)c1cc2cnc(Nc3ccc(C(=O)N4CC5CC(C4)N(CC(F)(F)F)C5)cn3)nc2n1C1CCCC1 (stereo not shown) [Example 12] < 4.82

Give pIC50 for the following compound: CN(C)C(=O)c1cc2cnc(Nc3ccc(C(=O)N4CC5CC5(N)C4)cn3)nc2n1C1CCCC1 (racemic) [Example 14] < 4.82

Give pIC50 for the following compound: CN(C)C(=O)c1cc2cnc(Nc3ccc(N4CCC5(CCNCC5)C4=O)cn3)nc2n1C1CCCC1 [Example 117] < 4.82

Numbers sourced from patent US8957074B2.
